Catalogue of glycan array binding signal (z-score) values
Target: GlcNAc(b1-3)Gal(b1-4)GlcNAc(b1-2)[GlcNAc(b1-3)Gal(b1-4)GlcNAc(b1-6)]Man(a1-6)[GlcNAc(b1-3)Gal(b1-4)GlcNAc(b1-2)Man(a1-3)]Man(b1-4)GlcNAc(b1-4)GlcNAc
Assay: glycan array binding signal (z-score within array); higher = stronger binding
Conditions: glycan notation: IUPAC condensed, linker removed
About 410 targets per protein were measured; listed, in parts, are those with the strongest signals and a random draw of the rest.

{"columns": ["binder", "glycan array binding signal (z-score)"],
 "data": [
  ["Langerin K313I (Homo sapiens), Q9UJ71 (protein) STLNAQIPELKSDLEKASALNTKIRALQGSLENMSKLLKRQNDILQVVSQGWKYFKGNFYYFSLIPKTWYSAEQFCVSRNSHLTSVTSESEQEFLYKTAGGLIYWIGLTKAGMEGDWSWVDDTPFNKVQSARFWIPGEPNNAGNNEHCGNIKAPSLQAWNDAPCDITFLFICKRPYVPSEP", 4.12],
  ["AT3G44510(29) (Arabidopsis thaliana), F4J341 (protein) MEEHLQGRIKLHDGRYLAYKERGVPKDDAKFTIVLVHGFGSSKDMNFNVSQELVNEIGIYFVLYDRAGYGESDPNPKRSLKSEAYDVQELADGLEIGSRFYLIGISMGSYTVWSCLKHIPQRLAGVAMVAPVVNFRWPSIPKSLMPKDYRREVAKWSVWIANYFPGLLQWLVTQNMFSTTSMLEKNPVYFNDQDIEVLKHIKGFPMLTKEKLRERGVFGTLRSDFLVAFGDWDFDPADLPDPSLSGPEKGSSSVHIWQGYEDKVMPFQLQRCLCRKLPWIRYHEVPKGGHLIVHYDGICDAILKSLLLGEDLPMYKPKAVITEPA", 2.5],
  ["MPA (Maclura pomifera), P18674 (protein) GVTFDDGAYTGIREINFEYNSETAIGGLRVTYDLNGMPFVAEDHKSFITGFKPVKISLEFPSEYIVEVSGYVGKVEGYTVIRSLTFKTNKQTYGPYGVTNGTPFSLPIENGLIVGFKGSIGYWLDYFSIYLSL", 5.1]
]}

Values from the supplement of paper PMC8728848
